- system: cAMP and cAMP-inhibited cGMP 3',5'-cyclic phosphodiesterase 10A (Homo sapiens)
- Sequence (Q9Y233 whole entry): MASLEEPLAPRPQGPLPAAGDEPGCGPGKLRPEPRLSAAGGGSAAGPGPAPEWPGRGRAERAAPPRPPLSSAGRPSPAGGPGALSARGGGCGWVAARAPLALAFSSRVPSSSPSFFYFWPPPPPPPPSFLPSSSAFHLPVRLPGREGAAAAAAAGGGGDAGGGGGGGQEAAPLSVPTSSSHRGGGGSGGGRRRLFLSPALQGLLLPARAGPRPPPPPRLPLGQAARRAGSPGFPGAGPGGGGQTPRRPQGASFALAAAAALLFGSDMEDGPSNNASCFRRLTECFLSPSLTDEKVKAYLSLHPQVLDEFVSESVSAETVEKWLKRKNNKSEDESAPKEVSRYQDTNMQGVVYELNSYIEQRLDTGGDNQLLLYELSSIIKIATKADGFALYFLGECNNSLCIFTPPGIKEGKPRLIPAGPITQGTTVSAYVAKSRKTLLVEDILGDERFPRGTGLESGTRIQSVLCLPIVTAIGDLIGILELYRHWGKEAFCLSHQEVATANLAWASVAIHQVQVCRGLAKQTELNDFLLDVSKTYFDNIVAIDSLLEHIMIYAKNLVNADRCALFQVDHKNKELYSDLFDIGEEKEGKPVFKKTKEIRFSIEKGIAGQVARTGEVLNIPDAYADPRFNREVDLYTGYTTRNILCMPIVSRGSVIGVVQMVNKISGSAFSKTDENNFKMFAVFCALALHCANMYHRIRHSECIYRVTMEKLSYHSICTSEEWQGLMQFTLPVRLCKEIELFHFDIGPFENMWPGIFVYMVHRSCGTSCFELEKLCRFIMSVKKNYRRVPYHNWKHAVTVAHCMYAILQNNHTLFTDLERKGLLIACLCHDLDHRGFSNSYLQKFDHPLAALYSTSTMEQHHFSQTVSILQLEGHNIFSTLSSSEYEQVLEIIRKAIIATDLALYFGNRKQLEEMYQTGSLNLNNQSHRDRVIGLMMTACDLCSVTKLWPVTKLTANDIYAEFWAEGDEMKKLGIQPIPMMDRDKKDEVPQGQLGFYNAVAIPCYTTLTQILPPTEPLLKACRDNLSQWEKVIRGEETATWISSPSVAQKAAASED
- experimental_details: Inhibition of human full length PDE10A2 expressed in African green monkey COS7 cells using [3H]cGMP as substrate preincubated for 30 mins followed by substrate addition measured after 60 mins by scintillation proximity assay
observable: IC50 (nM)

>>> print(df.to_string())
                                  cpd_smiles                                    system  numeric_readout
 0        COc1cn(C)nc(-c2ccnn2-c2ccccc2)c1=O  cAMP and cAMP-inhibited cGMP 3',5'-cyclic phosphodiesterase 10A (Homo sapiens)             1000
 1   COc1cn(CC2CC2)nc(-c2ccnn2-c2ccccc2)c1=O  cAMP and cAMP-inhibited cGMP 3',5'-cyclic phosphodiesterase 10A (Homo sapiens)              170
 2  Cn1c(CCCCOc2cn(CC3CC3)nc(-c3ccnn3-c3ccccc3)c2=O)nc2ccccc21  cAMP and cAMP-inhibited cGMP 3',5'-cyclic phosphodiesterase 10A (Homo sapiens)              760
 3  Cn1c(OCCOc2cn(CC3CC3)nc(-c3ccnn3-c3ccccc3)c2=O)nc2ccccc21  cAMP and cAMP-inhibited cGMP 3',5'-cyclic phosphodiesterase 10A (Homo sapiens)              4.1
 4  Cn1c(CCCOc2cn(CC3CC3)nc(-c3ccnn3-c3ccccc3)c2=O)nc2ccccc21  cAMP and cAMP-inhibited cGMP 3',5'-cyclic phosphodiesterase 10A (Homo sapiens)             0.81
 5  COc1cn(CC(F)(F)F)nc(-c2ccnn2-c2ccccc2)c1=O  cAMP and cAMP-inhibited cGMP 3',5'-cyclic phosphodiesterase 10A (Homo sapiens)              550
 6  Cn1c(COc2cn(CC3CC3)nc(-c3ccnn3-c3ccccc3)c2=O)nc2ccccc21  cAMP and cAMP-inhibited cGMP 3',5'-cyclic phosphodiesterase 10A (Homo sapiens)             2800
 7        COc1cn(-c2ccccc2)nc(-c2ccnn2C)c1=O  cAMP and cAMP-inhibited cGMP 3',5'-cyclic phosphodiesterase 10A (Homo sapiens)             2400
 8  Cn1c(CCOc2cn(CC3CC3)nc(-c3ccnn3-c3ccccc3)c2=O)nc2ccccc21  cAMP and cAMP-inhibited cGMP 3',5'-cyclic phosphodiesterase 10A (Homo sapiens)               25
 9    COc1cn(C2CC2)nc(-c2ccnn2-c2ccccc2)c1=O  cAMP and cAMP-inhibited cGMP 3',5'-cyclic phosphodiesterase 10A (Homo sapiens)              130
10  O=c1c(OCCN2CCn3c2nc2ccccc23)cn(CC2CC2)nc1-c1ccnn1-c1ccccc1  cAMP and cAMP-inhibited cGMP 3',5'-cyclic phosphodiesterase 10A (Homo sapiens)             0.76
